- target_of_assay: HDM2 protein (Homo sapiens)
- Sequence (Q00987 whole entry): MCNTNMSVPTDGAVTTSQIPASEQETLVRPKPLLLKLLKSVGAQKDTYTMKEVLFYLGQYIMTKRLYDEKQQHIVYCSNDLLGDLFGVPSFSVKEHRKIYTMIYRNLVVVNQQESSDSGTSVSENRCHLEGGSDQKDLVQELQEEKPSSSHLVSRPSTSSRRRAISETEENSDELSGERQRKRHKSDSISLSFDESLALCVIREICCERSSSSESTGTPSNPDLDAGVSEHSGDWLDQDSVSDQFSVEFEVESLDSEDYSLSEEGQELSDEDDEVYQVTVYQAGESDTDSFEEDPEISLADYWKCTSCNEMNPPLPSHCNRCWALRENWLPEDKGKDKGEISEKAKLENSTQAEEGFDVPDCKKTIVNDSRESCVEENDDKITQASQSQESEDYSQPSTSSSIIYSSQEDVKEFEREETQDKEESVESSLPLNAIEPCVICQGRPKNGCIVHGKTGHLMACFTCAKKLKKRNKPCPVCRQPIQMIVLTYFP
- protocol: fluorescence polarization screening assay (FP IC50)
- Format: binding
- condition_label: class symbols
assay_endpoint: IC50

Check out these entries, answers already filled in.
>>> test_value("CCC[C@H]1N(C(=O)c2ncccc2C(F)(F)F)CCC[C@@]1(Oc1csc(C(F)(F)F)c1)C(=O)N1Cc2ccccc2C(C(=O)O)C1 (stereo partly drawn) [Compound A154]")
"101 to 20000 nM"
>>> test_value("CCC[C@H]1N(C(=O)c2ncccc2C(F)(F)F)CCC[C@@]1(Oc1csc(C(F)(F)F)c1)C(=O)N1CCc2cc(Cl)ccc2C1CC(C)C (stereo partly drawn) [Compound A176]")
"101 to 20000 nM"

# input for lookup
### Prompt Form field: IC50 recorded for CCC[C@H]1N(C(=O)c2ncccc2C(F)(F)F)CCC[C@@]1(Oc1csc(C(F)(F)F)c1)C(=O)N1CCc2cc(Cl)sc2C1C(=O)O (stereo partly drawn) [Compound A19] with HDM2 protein (Homo sapiens) (enter value)
### Response 1 to 100 nM

Recorded values, source patent US9062071B2.
